assay: Pharmacokinetic properties in mice; type: in vivo, ICR mice; conditions: 10 mg/kg
ENDPOINT_LABEL: absorption compared with the positive compound VX-745 at the same dose

> print(dat)
                      smiles.representation          result.value
1  Cc1ccccc1-c1c(=O)ncn2nc(Oc3ccc(F)cc3F)ccc12                better
2  O=c1ncn2nc(Oc3ccc(F)cc3F)ccc2c1-c1cc(Cl)ccc1Cl                better
3  O=c1ncn2nc(Oc3cc(F)c(F)cc3F)ccc2c1-c1c(Cl)cccc1Cl                better
4  O=c1ncn2nc(Oc3ccc(F)cc3F)ccc2c1-c1c(F)cccc1Cl                better
5  O=c1ncn2nc(Oc3ccc(F)cc3F)ccc2c1-c1c(Cl)cccc1Cl  significantly higher
6  O=c1ncn2nc(Oc3ccc(F)cc3)ccc2c1-c1c(Cl)cccc1Cl  significantly higher

Entry source: patent US20220048915A1
